// provenance: patent US20100278801A1

tested target: T1, RB200 (human, UniProt P00533 25-645; P21860 20-643)
T1 construct: extracellular domain; Purified over Ni-Sepharose, so a His tag is likely on one chain, but none is described; also called parent heterodimer RB200; EGFR/HER3 heterodimer
procedure summary: 125I-NRG1-β saturation binding, heterodimer immobilised on anti-Fc coated plate
measure: pKd
// pKd: -log10(molar conc.)

Task: So what's the measured pKd for this one? NRG1-β (ligand, UniProt Q02297-6 177-241, looked up, also called NRG1β1; NRGβ1) SHLVKCAEKEKTFCVNGGECFMVKDLSNPSRYLCKCPNEFTGDRCQNYVMASFYKHLGIEFMEAE
Output: 7.91
